molecular target: IgG; experiment: ELISA-like binding assay
Primed or numbered codes have the meaning given here. Ends that are not written are not given here. FITC′ = not defined here
quantityKind: Kd (µM)
Answers are plain numbers, in µM.

Kd reported for this binder ECGLLPVGRPDRVWRLCK-{FITC′} (cysteine pairing not given here) [PTβR2I] : 83
